I'd be grateful if you could share measured normalized growth for these entries.
assay: chemical genetic growth profiling, strain panel (AID 1159580);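 note: tested at 20 µM; growth read once vehicle control cultures reached saturation at 30 °C; 1 = growth at the plate median or of vehicle wells; lower values mean less growth of the strain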; details: S. cerevisiae deletion strains, growth OD, locus YKR026C, strain gcn3, active compounds read low
Out of some 5,500 compounds screened, about 2,000 (36%) were called active. Another 18% or so got no clear call; they are omitted. The list shows a part of the results.

Challenge: Find the recorded normalized growth belonging to CCN(CC)CCCC(C)Nc1ccnc2cc(Cl)ccc12 (stereo unspecified) and report it.
Response given: 1.03 (inactive)

Challenge: Find the recorded normalized growth belonging to "COc1ccc2c(c1)O[C@@H]1COc3cc(OC)c(OC)cc3[C@@H]1C2=O" and report it.
Response given: 0.992 (inactive)

Challenge: Find the recorded normalized growth belonging to "COc1ccc2cc([C@H](C)C(=O)O)ccc2c1" and report it.
Response given: 0.983 (inactive)

Challenge: Find the recorded normalized growth belonging to CCN(CCO)CCCC(C)Nc1ccnc2cc(Cl)ccc12 (stereo unspecified) and report it.
Response given: 1 (inactive)

Challenge: Find the recorded normalized growth belonging to "Cc1[nH]c(C)c(Cl)c(=O)c1Cl" and report it.
Response given: 1 (inactive)

Challenge: Find the recorded normalized growth belonging to CC1CC2C3CCC4=CC(=O)C=C[C@]4(C)[C@@]3(F)[C@@H](O)C[C@]2(C)[C@@]1(O)C(=O)CO (stereo partly specified) and report it.
Response given: 0.993 (inactive)

Challenge: Find the recorded normalized growth belonging to "CC(C)c1c(C(=O)c2ccccc2)c(-c2ccccc2)c(-c2ccc(F)cc2)n1CC[C@@H](O)C[C@@H](O)CC(=O)O" and report it.
Response given: 0.952 (inactive)

Challenge: Find the recorded normalized growth belonging to COc1ccc(OC)c(C(O)C(C)N)c1 (stereo unspecified) and report it.
Response given: 0.994 (inactive)

Challenge: Find the recorded normalized growth belonging to CC1=C(C(C)O)C2=NC1C=c1[nH]c(c(C)c1C(C)O)=Cc1[nH]c(c(CCC(=O)O)c1C)C=c1[nH]c(c(C)c1CCC(=O)O)=C2 (stereo unspecified) and report it.
Response given: 0.989 (inactive)

Challenge: Find the recorded normalized growth belonging to C=Cc1c2[nH]c(c1C)C=c1[nH]c(c(C)c1C=C)=CC1N=C(C=c3[nH]c(c(C)c3CCC(=O)O)=C2)C(CCC(=O)O)=C1C (stereo unspecified) and report it.
Response given: 1.06 (inactive)

Challenge: Find the recorded normalized growth belonging to "COc1ccc2cc([C@H](C)CO)ccc2c1" and report it.
Response given: 1.01 (inactive)
